assay-notes: Denaturation temperature (Td) by DSC of soaked bleached hair after subsequent rinse step
particulars: after soak and 30 seconds rinse; vs Control 1 or Control 2
// values below are reported Difference from control (Td)
Use °C as the unit, but write only the number.

Use the examples below as a reference point.
test-smiles: CC(=O)N[C@@H](CCC(=O)O)C(=O)O
attribute-measured: Difference from control (Td)
recorded-measurement: 3.89
//
test-smiles: CC(=O)N[C@@H](Cc1c[nH]cn1)C(=O)O
attribute-measured: Difference from control (Td)
recorded-measurement: 1.64
//
test-smiles: CC(=O)N1CCC[C@H]1C(=O)O
attribute-measured: Difference from control (Td)
recorded-measurement: 2.16
//
test-smiles: CSCC[C@H](NC(C)=O)C(=O)O
attribute-measured: Difference from control (Td)
recorded-measurement: 3.85
//
test-smiles: CC(=O)N[C@@H](C)C(=O)O
attribute-measured: Difference from control (Td)
recorded-measurement: 4.2
//
test-smiles: CC(=O)N[C@@H](CCC(N)=O)C(=O)O
attribute-measured: Difference from control (Td)
recorded-measurement: 1.97

Next compound, please.
Request: For CC(=O)N[C@@H](CO)C(=O)O , what is its reported Difference from control (Td)?
Result: 3.02

* * *

assay-notes: Denaturation temperature (Td) by DSC of soaked and rinsed bleached hair after wash with base wash
particulars: after soak, rinse and wash with base wash (14% SLES solution); DSC
attribute-measured: Td (n = 3)
Enter a number only.

Use the examples below as a reference point.
test-smiles: CC(=O)N[C@@H](CCC(N)=O)C(=O)O
Td (n = 3): 150.85
--
test-smiles: CC(=O)N[C@@H](C)C(=O)O
Td (n = 3): 151.11
--
test-smiles: CC(=O)N[C@@H](CCC(=O)O)C(=O)O
Td (n = 3): 151.26
--
test-smiles: CSCC[C@H](NC(C)=O)C(=O)O
Td (n = 3): 151.14
--
test-smiles: CC(=O)N[C@@H](Cc1c[nH]cn1)C(=O)O
Td (n = 3): 147.65

Request: For CC(=O)N1CCC[C@H]1C(=O)O , what is its reported Td (n = 3)?
Result: 149.43
